- subjectOfTest: LHRH receptor (LHRH binding sites) on EFO-27 human ovarian cancer cells (human)
- procedureSummary: internalization/efflux study, cell-associated radioactivity, EFO-27 cells
Non-standard residues stand in square brackets, D forms with d. *: point of attachment. Bpa = N[C@@H](Cc1ccc(C(=O)c2ccccc2)cc1)C(=O)O; pGlu = O=C1CC[C@@H](C(=O)O)N1; DO3A10CM = not defined here; Hpgly = not defined here; azaGly = NNC(=O)O; 125I = [125I]*
Entries and their Bound % values follow.
Respond with a number, then the unit of measure.

Recorded Bound %, per entry:
binder="DO3A10CM-G[Hpgly]HWSH[dR]W[Bpa]P[azaGly]-NH2 (reading uncertain; also: 177Lu complexed by DO3A10CM, printed as 177Lu-DO3A10CM-Gly-Hpgly-His-Trp-Ser-His-Darg-Trp-Bpa4-Pro-azaGly-NH2) [^177Lu-BRU-2797]" quantitymeasured="Bound %" experimentalvalue=2.02%
binder="[pGlu]HWSH[dR]WY(125I)P[azaGly]-NH2 [[Darg^6, ^125I-Tyr^8, azaGly^10]-LHRH-II]" quantitymeasured="Bound %" experimentalvalue=1.2%

// below: Bound % requested for another binder
Given item XHWSHXWXPX (177Lu held by the N-terminal DO3A10CM: 177Lu-DO3A10CM-Dnal2-His-Trp-Ser-His-Darg-Trp-Bpa4-Pro-azaGly-NH2) [^177Lu-BRU-2666] , the value recorded as its Bound % is 12.2%
